# Test system: DeltatarO mutant
# assay_notes: S. aureus survival, RN4220 and DeltatarO strains – OD600, teichoic acid synthesis inhibitors, primary screen (AID 463173)
# condition_label: S. aureus RN4220 wild type/DeltatarO growth, OD600, 18 h, active compounds read low, screened at 18.75 µg/mL (by protocol)
The campaign covered roughly 52,000 compounds. About 4,300 (8.3%) were called active. What follows is part of a selection rich in actives, with near analogues and random picks from the rest.
Each entry below carries its reported survival.
Lab book: enter the figure in %, no units written.

# annotated cases, reported survival shown
> print(dat)
                                   molecule  assay.endpoint  unit.abbreviation  reported.result
1  Cc1ccc2nc(NC(=O)c3ccc(S(=O)(=O)N4CCCc5ccccc54)cc3)sc2c1        survival                  %              144
2  O=C1c2[nH]nc(-c3ccccc3O)c2C(c2ccc(Cl)cc2)N1Cc1ccco1 (centres undefined)        survival                  %               -1
3  CC(C)CCNC(=O)c1cn(C)c2ccc(S(=O)(=O)N3CCCC3)cc2c1=O        survival                  %              138
4  Cc1ccc(C(=O)Nc2nnc(S(=O)(=O)N3CCCc4ccccc43)s2)cc1        survival                  %               39
5  O=C1c2[nH]nc(-c3ccccc3O)c2C(c2cccc(Cl)c2)N1Cc1cccnc1 (centres undefined)        survival                  %               65
6  Cc1ccc(C(=O)Nc2nnc(S(=O)(=O)N3CCc4ccccc43)s2)cc1        survival                  %               26

Entry COc1cc(C2c3c(-c4c(C)cc(C)cc4O)n[nH]c3C(=O)N2Cc2ccco2)cc(OC)c1OC (centres undefined) has what survival? 67

Would you kindly repeat that for `COc1cccc(C(=O)Nc2nnc(S(=O)(=O)N3CCCc4ccccc43)s2)c1` ? 18

Would you kindly repeat that for COc1cc(C2c3c(-c4ccccc4O)n[nH]c3C(=O)N2Cc2ccco2)ccc1OCC(C)C (centres undefined) ? 7

* * *

# Tested on: DeltatarO mutant
# assay_notes: S. aureus survival, RN4220 and DeltatarO strains – OD600, teichoic acid synthesis inhibitors, primary screen (AID 463173)
# condition_label: S. aureus RN4220 wild type/DeltatarO growth, OD600, 18 h, active compounds read low, screened at 18.75 µg/mL (by protocol)
In all, about 52,000 compounds went through this assay and about 4,300 (8.3%) were called active. For the sample, actives were picked, then their nearest neighbours and some compounds at random.
Each entry below carries its reported survival.

# annotated cases, reported survival shown
> print(dat)
                         chemical.structure  assay.endpoint  reported.result
1  CCOC(=O)c1c(C)sc(-c2c(-c3ccc(OC)c(F)c3)[nH]c3c2c(=O)[nH]c(=O)n3C)c1O        survival  117% (inactive)
2  COC(=O)c1c(C)sc(-c2c(-c3cccc(OC)c3)[nH]c3c2c(=O)[nH]c(=O)n3C)c1O        survival     43% (active)
3  CCc1ccc(-c2[nH]c3c(c2-c2sc(C)c(C(=O)OC)c2O)c(=O)[nH]c(=O)n3C)cc1        survival     23% (active)

With those in mind, consider the next molecule.
Entry `CCOC(=O)c1c(C)sc(-c2c(-c3cccc(Cl)c3)[nH]c3c2c(=O)n(C)c(=O)n3C)c1O` has what survival? 113% (inactive)

* * *

# Test system: DeltatarO mutant
# assay_notes: S. aureus survival, RN4220 and DeltatarO strains – OD600, teichoic acid synthesis inhibitors, primary screen (AID 463173)
# condition_label: S. aureus RN4220 wild type/DeltatarO growth, OD600, 18 h, active compounds read low, screened at 18.75 µg/mL (by protocol)
Hit rate of the full screen: of about 52,000 compounds, about 4,300 (8.3%) were called active. The sample as a whole holds a higher share of actives than the screen did.
survival under 90% gets 1, anything at or over 90% gets -1.

Known results for molecules:
> print(dat)
                                   molecule            target  category
1  Cc1ccc(-n2nc(C(=O)N3CCN(c4ccccc4)CC3)c(=O)n(C)c2=O)cc1  DeltatarO mutant        -1
2  O=C(NCC(c1ccccc1)c1ccccc1)c1nn(-c2ccccc2F)nc1CO  DeltatarO mutant        -1
3  Cc1ccc(-n2nc(C(=O)N3CCC(C)CC3)c(=O)n(C)c2=O)cc1  DeltatarO mutant         1
4  Cc1cccc(NS(=O)(=O)c2ccc3oc(=O)c4ncn(C)c4c3c2)c1C  DeltatarO mutant        -1
5  O=C(CSc1cn(CCNC(=O)c2c(F)cccc2F)c2ccccc12)Nc1ccccc1F  DeltatarO mutant         1
6  CC(CNC(=O)c1ccc(Cn2c(SCc3ccccc3)nc3cccnc32)cc1)c1ccccc1 (stereo not given)  DeltatarO mutant         1

Lab note: confirm whether the reported survival for this molecule is below 90%, equality not counting. molecule: CC1CCCN(C(=O)CCS(=O)(=O)c2cc3c(cc2Cl)NC(=O)CO3)C1 (stereo not given) 1

Would you kindly repeat that for `CN(C)c1ccc(NC(=O)Cn2c(SCc3ccccc3F)nc3cccnc32)cc1` ? -1

* * *

# Test system: DeltatarO mutant
# assay_notes: S. aureus survival, RN4220 and DeltatarO strains – OD600, teichoic acid synthesis inhibitors, primary screen (AID 463173)
# condition_label: S. aureus RN4220 wild type/DeltatarO growth, OD600, 18 h, screened at 18.75 µg/mL (by protocol)
Hit rate of the full screen: of about 52,000 compounds, about 4,300 (8.3%) were called active. Cut-off read from the data, not from the text of the source: active = survival mostly below about 52% (no sharp cut-off); inactive = mostly above about 56%. The list comes from a sample in which actives are over-represented; it also holds close analogues and randomly drawn compounds.
Field 'call' accepts active, inactive

Known results for compounds:
> print(dat)
                                   compound            target  category
1  COc1ccc(CNC(=O)CCc2nc(-c3ccc(OC)cc3)no2)cc1  DeltatarO mutant  inactive
2  Cc1ccc(N2CC(NC(=O)/C=C\c3ccc4c(c3)OCO4)CC2=O)cc1 (stereo unspecified)  DeltatarO mutant  inactive
3  CCCN(C(=O)CCc1nc(-c2ccc(OC)cc2)no1)c1ccccc1F  DeltatarO mutant    active

Any idea what this test logged for `COc1ccc(OC)c(NC(=O)CCc2nc(-c3ccc(C)cc3)no2)c1` ? inactive

Would you kindly repeat that for `O=C(O)c1ccc2oc(=O)n(Cc3ccccc3)c2c1` ? inactive

Would you kindly repeat that for `CCCN(C(=O)CCc1nc(-c2ccc(C)cc2)no1)c1ccc(OCC)cc1` ? active

Would you kindly repeat that for `CCCN(C(=O)CCc1nc(-c2ccccc2F)no1)c1ccc(CC)cc1` ? active

Would you kindly repeat that for `CCOC(=O)c1ccccc1NC(=O)CCc1nc(-c2ccc(C)cc2)no1` ? inactive

Would you kindly repeat that for `CCCCOc1ccc(Cn2c(=O)oc3ccc(C)cc32)cc1OC` ? active

Would you kindly repeat that for `CCCCCOc1ccc(Cn2c(=O)oc3ccccc32)cc1` ? inactive

Would you kindly repeat that for `CC(C)CCOc1ccc(Cn2c(=O)oc3ccccc32)cc1` ? inactive

* * *

# Tested on: DeltatarO mutant
# assay_notes: S. aureus survival, RN4220 and DeltatarO strains – OD600, teichoic acid synthesis inhibitors, primary screen (AID 463173)
# condition_label: S. aureus RN4220 wild type/DeltatarO growth, OD600, 18 h, screened at 18.75 µg/mL (by protocol)
The whole screen tested about 52,000 compounds, of which about 4,300 (8.3%) were called active. Rule as the data show it: active = survival mostly below about 52% (no sharp cut-off); inactive = mostly above about 56%. The sample as a whole holds a higher share of actives than the screen did.
Field 'call' accepts 1.0 for active, 0.0 for inactive

Known results for molecules:
> print(dat)
                                   molecule  category
1        CCCCn1c(NCc2ccc(OC)cc2O)nc2ccccc21       0.0
2  Cc1ccc(C)c(Cn2c(=O)n(Cc3ccccc3)c(=O)c3c2c2cc(C)ccc2n3C)c1       0.0
3       CCn1c(NCc2ccc(OC)c(OC)c2)nc2ccccc21       0.0
4  Cc1ccc(NC(=O)CCN2C(=O)c3ccccc3Sc3ncccc32)c(Cl)c1       0.0
5     CCCn1c(NCc2ccc(N(CC)CC)cc2)nc2ccccc21       1.0
6  Cc1nn(-c2cccc(Cl)c2)c2nc(-c3cccnc3)cc(C(F)(F)F)c12       0.0

Any idea what this test logged for `O=C(CSc1nccn1Cc1ccc(Cl)cc1)NC1CCCC1` ? 0.0

* * *

# Test system: DeltatarO mutant
# assay_notes: S. aureus survival, RN4220 and DeltatarO strains – OD600, teichoic acid synthesis inhibitors, primary screen (AID 463173)
# condition_label: S. aureus RN4220 wild type/DeltatarO growth, OD600, 18 h, active compounds read low, screened at 18.75 µg/mL (by protocol)
The campaign covered roughly 52,000 compounds. About 4,300 (8.3%) were called active. This excerpt belongs to a sample that is enriched for actives.
Our labelling divides records by survival into ranges: range A (below 40%), range B (40% to below 70%), range C (70% or more)

Known results for compounds:
> print(dat)
                                   compound  category
1  N#Cc1c(NC(=O)c2cc3nc(-c4ccc(Br)cc4)cc(C(F)(F)F)n3n2)sc2c1CCCC2   range A
2  Cc1ccc(-n2c(SCC(=O)Nc3cccc(C)c3)nc3c(oc4ccccc43)c2=O)cc1   range C
3  CCN(c1ccc(OC)cc1)S(=O)(=O)c1ccc2[nH]c(=O)ccc2c1   range C
4  COc1ccc(NC(=O)CCN2CCN(c3cccc(Cl)c3)CC2)cc1   range B
5  CCOc1ccccc1NS(=O)(=O)c1ccc(N2CCCCS2(=O)=O)cc1   range C

Hello team, could you let me know which band the following compound falls into: CCOC(=O)c1ccc(N2C(=O)c3n[nH]c(C)c3C2c2ccc(OCC)cc2)cc1 (stereo not given) range B

Would you kindly repeat that for CCOC(=O)c1ccc(N2C(=O)c3n[nH]c(-c4ccco4)c3C2c2ccc(F)cc2)cc1 (stereo not given) ? range A

Would you kindly repeat that for `COCCN(Cc1ccc(C)c(Br)c1)S(=O)(=O)c1ccc2[nH]c(=O)ccc2c1` ? range A
